# assaySystem: HLA-A*02:06
# experimentalDetails: IEDB peptide-MHC binding, purified MHC/direct/fluorescence; filed as Kd, often an IC50 or EC50 that approximates it; bounds were set here for any values at or beyond the usual limits of such assays
# particulars: source organism: Brucella suis 1330
assayMetric: Kd

Provide Kd value for the following sequence: MRDGGSATV
≥ 10 µM

----------
# assaySystem: HLA-A*02:11
# experimentalDetails: IEDB peptide-MHC binding, purified MHC/competitive/fluorescence; filed as Kd, often an IC50 or EC50 that approximates it; bounds were set here for any values at or beyond the usual limits of such assays
# particulars: source organism: Encephalitozoon cuniculi GB-M1
pKd: −log10 of the molar value.
assayMetric: pKd

State pKd on HLA-A*02:11. Entry: NLFEIEWEE
≤ 4.70

----------
# assaySystem: HLA-A*32:01
# experimentalDetails: IEDB peptide-MHC binding, purified MHC/competitive/radioactivity; filed as Kd, often an IC50 or EC50 that approximates it; bounds were set here for any values at or beyond the usual limits of such assays
# particulars: source organism: Mammarenavirus juninense
pKd: −log10 of the molar value.
assayMetric: pKd

State pKd on HLA-A*32:01. Entry: GVLEEQGSFY
≤ 4.16

----------
# assaySystem: HLA-B*08:01
# experimentalDetails: IEDB peptide-MHC binding, purified MHC/direct/fluorescence; filed as Kd, often an IC50 or EC50 that approximates it; bounds were set here for any values at or beyond the usual limits of such assays
# particulars: source organism: Yersinia pestis
pKd: −log10 of the molar value.
assayMetric: pKd

Provide pKd value for the following sequence: LTDEDKQNQ
≤ 4.70

----------
# assaySystem: HLA-A*02:12
# experimentalDetails: IEDB peptide-MHC binding, purified MHC/competitive/fluorescence; filed as Kd, often an IC50 or EC50 that approximates it; bounds were set here for any values at or beyond the usual limits of such assays
# particulars: source organism: Vibrio parahaemolyticus RIMD 2210633
pKd: −log10 of the molar value.
assayMetric: pKd

Provide pKd value for the following sequence: HVIYFTAFT
≤ 4.70

----------
Reported pKd by item:
# assaySystem: HLA-B*27:03
# experimentalDetails: IEDB peptide-MHC binding, purified MHC/competitive/fluorescence; filed as Kd, often an IC50 or EC50 that approximates it; bounds were set here for any values at or beyond the usual limits of such assays
# particulars: source organism: Orthohantavirus andesense
pKd: −log10 of the molar value.

{"columns": ["residues", "pKd"],
 "data": [
  ["LEEDIQHFL", "≤ 4.70"]
]}

Provide pKd value for the following sequence: KPKALSEAF
≤ 4.70

----------
# assaySystem: HLA-A*33:01
# experimentalDetails: IEDB peptide-MHC binding, purified MHC/competitive/radioactivity; filed as Kd, often an IC50 or EC50 that approximates it; bounds were set here for any values at or beyond the usual limits of such assays
# particulars: source organism: SARS coronavirus Tor2
assayMetric: pKd
// returns pKd (minus log10 of molar concentration), number only

{"columns": ["residues", "assaySystem", "reportedMeasurement"],
 "data": [
  ["LAMDEFIQR", "HLA-A*33:01", 5.84]
]}

Provide pKd value for the following sequence: RFQPFQQFGR
5.89

Provide pKd value for the following sequence: MQNCLLRLK
4.92

Provide pKd value for the following sequence: DQDALFAYTK
5.02

Provide pKd value for the following sequence: SLTVLFDGR
5.60

Provide pKd value for the following sequence: GVVREFLTR
4.88

Provide pKd value for the following sequence: QTVKPGNFNK
4.98

Provide pKd value for the following sequence: FLLNKEMYLK
5.60

Provide pKd value for the following sequence: VTCAAYYFMK
5.58

Provide pKd value for the following sequence: SVFYLYLTFY
5.22

Provide pKd value for the following sequence: NFLKEQHCQK
5.91

Provide pKd value for the following sequence: TFFSTFKCY
5.94

Provide pKd value for the following sequence: NLLDSYFVVK
5.34

----------
# assaySystem: HLA-A*02:01
# experimentalDetails: IEDB peptide-MHC binding, purified MHC/direct/fluorescence; filed as Kd, often an IC50 or EC50 that approximates it; bounds were set here for any values at or beyond the usual limits of such assays
# particulars: source organism: Pseudomonas tolaasii
assayMetric: Kd

Provide Kd value for the following sequence: AEGTGITHL
≥ 20 µM

----------
# assaySystem: HLA-B*07:02
# experimentalDetails: IEDB peptide-MHC binding, purified MHC/competitive/fluorescence; filed as Kd, often an IC50 or EC50 that approximates it; bounds were set here for any values at or beyond the usual limits of such assays
# particulars: source organism: Vaccinia virus Copenhagen
assayMetric: Kd

Provide Kd value for the following sequence: YHRFGLYRL
≥ 20 µM

----------
# assaySystem: HLA-A*11:01
# experimentalDetails: IEDB peptide-MHC binding, purified MHC/direct/fluorescence; filed as Kd, often an IC50 or EC50 that approximates it; bounds were set here for any values at or beyond the usual limits of such assays
# particulars: source organism: Cryptosporidium parvum Iowa II
assayMetric: Kd (nM)
Quick note: give the figure in nM, leave out the unit.

Provide Kd value for the following sequence: MSQMPPHPY
377

----------
Reported Kd by item:
# assaySystem: HLA-A*24:02
# experimentalDetails: IEDB peptide-MHC binding, purified MHC/competitive/radioactivity; filed as Kd, often an IC50 or EC50 that approximates it; bounds were set here for any values at or beyond the usual limits of such assays
# particulars: source organism: Lassa virus Josiah

// below: answered sequences
{"columns": ["residues", "Kd"],
 "data": [
  ["FFQEVPHVI", "0.713 µM"],
  ["ICLSGDGWPY", "≥ 70.3 µM"]
]}

Turning to the following sequence.
Provide Kd value for the following sequence: YCNYSKYWY
≥ 44.4 µM

----------
# assaySystem: HLA-B*57:01
# experimentalDetails: IEDB peptide-MHC binding, purified MHC/competitive/fluorescence; filed as Kd, often an IC50 or EC50 that approximates it; bounds were set here for any values at or beyond the usual limits of such assays
# particulars: source organism: Homo sapiens
pKd: −log10 of the molar value.
Reported pKd by item:

{"columns": ["residues", "reportedMeasurement"],
 "data": [
  ["VSDFRKEFY", "≤ 4.70"]
]}

State pKd on HLA-B*57:01. Entry: EVIPYTPAM
≤ 4.70

State pKd on HLA-B*57:01. Entry: VLIRRCHYL
≤ 4.70

----------
Reported Kd by item:
# assaySystem: HLA-A*02:03
# experimentalDetails: IEDB peptide-MHC binding, purified MHC/competitive/radioactivity; filed as Kd, often an IC50 or EC50 that approximates it; bounds were set here for any values at or beyond the usual limits of such assays
# particulars: source organism: Mammarenavirus whitewaterense
Quick note: give the figure in nM, leave out the unit.

{"columns": ["residues", "assaySystem", "unitLabel", "Kd"],
 "data": [
  ["ALNIALIAV", "HLA-A*02:03", "nM", 0.225]
]}

Turning to the following sequence.
Provide Kd value for the following sequence: GLVDVCFWS
1070

----------
# assaySystem: HLA-A*02:12
# experimentalDetails: IEDB peptide-MHC binding, purified MHC/competitive/fluorescence; filed as Kd, often an IC50 or EC50 that approximates it; bounds were set here for any values at or beyond the usual limits of such assays
# particulars: source organism: Campylobacter jejuni subsp. jejuni NCTC 11168 = ATCC 700819
assayMetric: Kd

Provide Kd value for the following sequence: KGMKIQHFK
≥ 20 µM

----------
# assaySystem: HLA-A*02:01
# experimentalDetails: IEDB peptide-MHC binding, purified MHC/competitive/fluorescence; filed as Kd, often an IC50 or EC50 that approximates it; bounds were set here for any values at or beyond the usual limits of such assays
# particulars: source organism: Giardia lamblia ATCC 50803
assayMetric: Kd (nM)
Quick note: give the figure in nM, leave out the unit.

Provide Kd value for the following sequence: SLQECVKMA
0.7

----------
# assaySystem: HLA-A*68:02
# experimentalDetails: IEDB peptide-MHC binding, purified MHC/direct/fluorescence; filed as Kd, often an IC50 or EC50 that approximates it; bounds were set here for any values at or beyond the usual limits of such assays
# particulars: source organism: Rickettsia bellii OSU 85-389
assayMetric: Kd (nM)
Quick note: give the figure in nM, leave out the unit.

Provide Kd value for the following sequence: EDFEIFYNL
144

----------
# assaySystem: HLA-A*68:02
# experimentalDetails: IEDB peptide-MHC binding, purified MHC/direct/fluorescence; filed as Kd, often an IC50 or EC50 that approximates it; bounds were set here for any values at or beyond the usual limits of such assays
# particulars: source organism: Marburg virus - Musoke, Kenya, 1980
assayMetric: Kd

Provide Kd value for the following sequence: IISTNTLGK
≥ 20 µM

----------
# assaySystem: HLA-A*03:01
# experimentalDetails: IEDB peptide-MHC binding, purified MHC/direct/fluorescence; filed as Kd, often an IC50 or EC50 that approximates it; bounds were set here for any values at or beyond the usual limits of such assays
# particulars: source organism: Homo sapiens
assayMetric: pKd
// returns pKd (minus log10 of molar concentration), number only

Provide pKd value for the following sequence: GRIDKPILK
4.87

Source listed as the Immune Epitope Database (IEDB).
